# Test system: EKVX NSCLC
# assay.name: NCI tumour cell line growth inhibition, 48 h; in the data active means GI50 below about 0.43 µM; inactive means the rest
*1 amine or outer side, *2 acyl side, *3 side chain or, on linkers, in order; H or OH if unused. Where a SMILES comes first, the peptide text is derived from it. Bridges are numbered along the chain shown (N, C = ends). Roman numbers before positions name the chains, in order. [ ]: non-standard residue; d: D form. ξ: configuration not given here. Actinocin(1to9) = Cc1c2oc3c(C)ccc(C(=O)[*:2])c3nc-2c(C(=O)[*:1])c(N)c1=O; Pro(4-oxo) = O=C1CN[C@H](C(=O)O)C1; Thr(3ξ) = CC(O)[C@H](N)C(=O)O; NMeV = CN[C@H](C(=O)O)C(C)C; Sar = CNCC(=O)O
API: response.call in TRUE (active), FALSE (inactive)

O=C(c1ccccc1)c1ccc2nc(-c3ccccc3Br)[nH]c2c1 ... FALSE

query: What call does the record list for CC(=O)Oc1ccccc1C(=O)Oc1ccc(C(=O)/C=C/c2ccncc2)cc1 ?
result: FALSE

query: What call does the record list for COc1ccc(CCN2C(=O)/C(=C/c3csc(C#N)n3)SC2=S)cc1OC ?
result: FALSE

query: What call does the record list for Cc1c2oc3c(C)ccc(C(=O)N[C@@H]4C(=O)N[C@H](C(C)C)C(=O)N5CCC[C@H]5C(=O)N(C)CC(=O)N(C)[C@@H](C(C)C)C(=O)OC4C)c3nc-2c(C(=O)N[C@@H]2C(=O)N[C@H](C(C)C)C(=O)N3CC(=O)C[C@H]3C(=O)N(C)CC(=O)N(C)[C@@H](C(C)C)C(=O)OC2C)c(N)c1=O (some centres undefined) (I: [Thr(3ξ)][dV][Pro(4-oxo)][Sar][NMeV] / II: [Thr(3ξ)][dV]P[Sar][NMeV]; ester I:1-I:C, II:1-II:C; linker I:N-II:N via Actinocin(1to9)) ?
result: TRUE
